Quick list: CRF2R EC50 per entry.
# MEASURED_ON: T1, CRF2R
# T1 sequence (Q13324 whole entry, species assumed, looked up): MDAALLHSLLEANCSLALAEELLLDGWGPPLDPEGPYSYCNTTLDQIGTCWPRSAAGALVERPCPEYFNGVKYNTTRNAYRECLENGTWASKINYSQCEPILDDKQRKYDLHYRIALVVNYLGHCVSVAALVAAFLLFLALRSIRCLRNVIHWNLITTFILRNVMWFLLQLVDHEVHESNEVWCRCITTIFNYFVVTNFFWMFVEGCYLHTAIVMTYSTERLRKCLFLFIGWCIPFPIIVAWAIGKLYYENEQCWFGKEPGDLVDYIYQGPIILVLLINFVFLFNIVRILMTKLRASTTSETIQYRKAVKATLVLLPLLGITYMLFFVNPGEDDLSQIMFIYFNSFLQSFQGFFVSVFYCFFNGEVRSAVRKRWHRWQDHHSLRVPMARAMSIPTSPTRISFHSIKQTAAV
# PROTOCOL_DETAILS: cell-based or functional assay
Ends that are not written are not given here.
Report the figure in nM without appending any unit label.

Check out these entries, answers already filled in.
| BINDER | UNIT_LABEL | READING |
| --- | --- | --- |
| SQEPPISLDLPFGLLREVLEMTKADQLAQQAHSNRKLLDIA-NH2 [SEQ ID NO 103] | nM | 100 |
| ZGPPISIDLPFHLLRKMIEIEKQEKEKQQAANNRLLLDTI (C-terminal amide) [SEQ ID NO 69] | nM | 5.85 |

INPUT: What value of CRF2R EC50 has been recorded for this entry: ZGPPISIDLPLHLLRKMIEIEKQEKEKQQATTNARILARV (C-terminal amide) [SEQ ID NO 145]
OUTPUT: 7.8

INPUT: What value of CRF2R EC50 has been recorded for this entry: ZGPPISIDLPAQLLRKMIEIEKQEKEKQQAANNRLLLDTI (C-terminal amide) [SEQ ID NO 211]
OUTPUT: 59.5

INPUT: What value of CRF2R EC50 has been recorded for this entry: IVLSLDVPGPLLQILLEQTKQEAAREQATTNARILARV-NH2 [SEQ ID NO 5]
OUTPUT: 100

INPUT: What value of CRF2R EC50 has been recorded for this entry: ZGPPISIDLPFILLRKMIEIEKQEKEKQQAANNRLLLDTI (C-terminal amide) [SEQ ID NO 189]
OUTPUT: 7
